- TARGET ENTITY: recombinant TFPI of the FXa restoring assay (human, mouse or rat; species not stated for Tables 9 and 10)
- ASSAY REMARKS: cell-based or functional assay
Please assign not met whenever Improvement of IC50 vs 2A8wt is at or above 3 fold, and met whenever it is below.

BINDER	GROUP LABEL
2A8 HC S31V (Fab, V domains shown) VH: QVQLVESGGGLVQPGGSLRLSCAASGFTFRVYGMSWVRQAPGKGLEWVSSIRGSSSSTYYADSVKGRFTISRDNSKNTLYLQMNSLRAEDTAVYYCARKYRYWFDYWGQGTLVTVSS VL: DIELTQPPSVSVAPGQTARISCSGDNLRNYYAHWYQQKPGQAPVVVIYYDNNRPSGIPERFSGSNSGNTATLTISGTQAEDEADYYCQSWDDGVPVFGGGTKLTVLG	not met
2A8 HC S31P (Fab, V domains shown) VH: QVQLVESGGGLVQPGGSLRLSCAASGFTFRPYGMSWVRQAPGKGLEWVSSIRGSSSSTYYADSVKGRFTISRDNSKNTLYLQMNSLRAEDTAVYYCARKYRYWFDYWGQGTLVTVSS VL: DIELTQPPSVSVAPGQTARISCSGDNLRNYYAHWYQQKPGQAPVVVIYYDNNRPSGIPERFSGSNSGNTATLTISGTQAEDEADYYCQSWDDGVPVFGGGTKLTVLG	met
2A8 HC I51E (Fab, V domains shown) VH: QVQLVESGGGLVQPGGSLRLSCAASGFTFRSYGMSWVRQAPGKGLEWVSSERGSSSSTYYADSVKGRFTISRDNSKNTLYLQMNSLRAEDTAVYYCARKYRYWFDYWGQGTLVTVSS VL: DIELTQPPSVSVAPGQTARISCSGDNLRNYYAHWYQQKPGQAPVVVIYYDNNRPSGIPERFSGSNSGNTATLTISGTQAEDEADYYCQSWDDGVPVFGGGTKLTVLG	met
2A8 wild-type Fab (Fab, V domains shown) VH: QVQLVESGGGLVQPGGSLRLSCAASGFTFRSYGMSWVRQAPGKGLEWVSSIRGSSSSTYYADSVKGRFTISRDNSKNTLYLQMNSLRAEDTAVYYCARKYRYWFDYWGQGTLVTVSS VL: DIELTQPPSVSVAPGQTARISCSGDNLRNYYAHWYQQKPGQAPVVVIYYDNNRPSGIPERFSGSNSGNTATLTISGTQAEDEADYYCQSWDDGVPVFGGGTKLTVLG	met
